- System: CEM cells HIV-1 protection, formazan growth assay
- Measurement Notes: NCI AIDS Antiviral Assay;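 active = compounds giving half or more protection of infected cells from virus-caused growth loss, again on retest; inactive = the rest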
Mark one answer only. Choices: active, inactive

The examples below pair each entry with its known result.
[[record]]
molecule = "CCC[CH2][Sn]1([CH2]CCC)[N](S(=O)(=O)c2ccc(C)cc2)c2ccccc2[N]1S(=O)(=O)c1ccc(C)cc1"
label = "inactive"

[[record]]
molecule = "N#COc1ccc(Oc2ccccc2)cc1"
label = "inactive"

[[record]]
molecule = "CCCCCCCCCC=C(c1cc(Cl)c(OC)c(C(=O)O)c1)c1cc(Cl)c(OC)c(C(=O)O)c1"
label = "active"

[[record]]
molecule = "COC(=O)c1c2c(cc3c1CC1(C3)Cc3cc4c(c(C(=O)OC)c3C1)CCCC4)CCCC2"
label = "inactive"


Called result for `FC(F)(Sc1ccccn1)c1nc2ccccc2o1`
active

What do you get for `Clc1ccccc1-c1nc2ccc(C34CC5CC(CC(C5)C3)C4)cc2[nH]1` ?
inactive

What do you get for `O=C1/C(=C/c2ccccc2)CSC/C1=C\c1ccccc1` ?
inactive

What do you get for COc1ccc(C2=Nc3cc(C)c(C)cc3NC(c3ccccc3)C2)cc1 (stereo not drawn) ?
inactive

What do you get for O=C1c2c(ccc3c2CCCC3)CC1Cc1ccc2c(c1)CCCC2 (stereo not drawn) ?
inactive

What do you get for `O=C(O)COc1cccc2ccccc(=O)c12` ?
inactive

What do you get for `CCOC(=O)c1cc(OC(C)=O)c2ccccc2c1` ?
inactive

What do you get for `O=c1cc(-c2ccccc2)ss1` ?
inactive

What do you get for `COc1ccccc1/C=C1\Cc2ccccc2C1=O` ?
inactive

What do you get for `Nc1c(S(=O)(=O)c2ccc(Cl)cc2)c2nc3ccccc3nc2n2ccnc12` ?
inactive

What do you get for `Nc1nc(=S)c2c(ncn2CCO)[nH]1` ?
inactive

What do you get for OCC1O[C@H](O[C@@H]2CCCN3CC(O)C(O)[C@@H]23)C(O)C(O)C1O (stereo partly drawn) ?
inactive

What do you get for `O=c1oc2cc(O)ccc2c2[nH]c3cc(O)ccc3c12` ?
inactive

---

- Tested on: CEM cells HIV-1 protection, formazan growth assay
- Measurement Notes: NCI AIDS Antiviral Assay
Activity calls are given as the source filed them.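 The calls were made as follows: active = compounds giving half or more protection of infected cells from virus-caused growth loss, again on retest; inactive = the rest.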
Mark one answer only. Choices: active, inactive

The examples below pair each entry with its known result.
[[record]]
compound = "O=C1C(Cl)=C(Cl)C(=O)N1c1ccc(F)cc1"
label = "inactive"

[[record]]
compound = "O=C(c1ccccc1)N1C2CCC1C(C(F)(F)F)=C2C(F)(F)F"
label = "inactive"

[[record]]
compound = "CC(=O)Oc1cc2c(cc1OC(C)=O)C1(C)CCC2(C)c2cc(OC(C)=O)c(OC(C)=O)cc21"
label = "inactive"

[[record]]
compound = "C[N+](C)(C)CC1Cc2ccccc2C1=O (stereo not drawn)"
label = "inactive"


Called result for `O=S(=O)(N=NC=C1c2ccccc2N(O)c2ccccc21)c1ccc(Cl)cc1`
inactive

What do you get for `CCCCCCCCCCCCCC(=O)CC(=O)c1c(O)cccc1O` ?
inactive

What do you get for C=C1C(C(=O)O)C1C(=O)O (stereo not drawn) ?
inactive

What do you get for `Cc1nnc2scnn12` ?
inactive

What do you get for CN(C)CCNC(c1ccccc1)C(O)c1ccccc1 (stereo not drawn) ?
inactive

---

- Test system: CEM cells HIV-1 protection, formazan growth assay
- Measurement Notes: NCI AIDS Antiviral Assay
- Assay Context: measured here: growth of uninfected CEM cells
Could you mark each record true if its IC50 falls strictly under 9 µM, and false if it equals or exceeds it?

The examples below pair each entry with its known result.
[[record]]
compound = "C[C@H](CCCN1CCCCC1)[C@H]1CC[C@H]2[C@@H]3CC[C@@H]4C[C@H](O)CC[C@]4(C)[C@H]3CC[C@]12C"
label = "true"

[[record]]
compound = "CCN(CC)C(=S)SNCCc1ccc(S(N)(=O)=O)cc1"
label = "false"

[[record]]
compound = "O=c1cc(-c2ccc3c(c2)OCO3)oc2c(Cl)cc(Cl)cc12"
label = "false"

[[record]]
compound = "C(=C\\c1ccccc1)/COc1ccccc1C(N1CCOCC1)n1nc2ccccc2n1 (stereo unspecified)"
label = "true"

[[record]]
compound = "COc1cc2c(c(C3(O)C(=O)N(C)c4ccccc43)c1OC)OCO2 (stereo unspecified)"
label = "false"


Check if IC50 falls below 9 µM for `CN1CCN(c2cc3nsnc3c3nsnc23)CC1` .
false

What do you get for Cc1c(C2CCSc3ccccc3N2)sc2ccccc12 (stereo unspecified) ?
false

What do you get for `CC(C)(C)c1cc(CCC(=O)Nc2ccc(Cl)cc2)[nH]c(=S)n1` ?
false

What do you get for CCOC(=O)C1CC(C(=O)c2ccccc2)N2c3ccccc3-c3ccccc3C12 (stereo unspecified) ?
true

What do you get for `O=c1c2cc([N+](=O)[O-])ccc2n2n1CCCCC2` ?
false

What do you get for `Cc1ccc(S(=O)(=O)n2c(-c3ccccc3)c(-c3ccccc3)c3ccccc32)cc1` ?
false

---

So I've got a bunch of molecules here, and I need their pEC50 values.
- Tested on: CEM cells HIV-1 protection, formazan growth assay
- Measurement Notes: NCI AIDS Antiviral Assay
pEC50: −log10 of the molar value.

Use the examples below as a reference point.
[[record]]
molecule = "COc1ccc(C2Oc3cc(OC)c(O)c(C)c3[C@H]2C)cc1 (stereo partly specified)"
target_or_system = "CEM cells HIV-1 protection, formazan growth assay"
reported_result = "< 4.34"

[[record]]
molecule = "O=C(/C=C/c1ccc2c(c1)OCO2)c1ccc(O)cc1"
target_or_system = "CEM cells HIV-1 protection, formazan growth assay"
reported_result = "< 3.70"

[[record]]
molecule = "COc1cc2ccc1NC(=O)N1CCN(CC1)C(=O)Nc1ccc(cc1OC)-c1ccc(c(OC)c1)NC(=O)N1CCN(CC1)C(=O)Nc1ccc-2cc1OC"
target_or_system = "CEM cells HIV-1 protection, formazan growth assay"
reported_result = "< 6.03"


Please go through the list and note pEC50 for each molecule.
1. Cn1c(=O)c2nc(NCC3CCCCC3)sc2n(C)c1=O
2. CC(=O)Nc1oc(C)nc1C#N
3. O=[N+]([O-])c1cc(Cl)ccc1S(=O)(=O)c1ccccc1
4. COc1ccc(CCNC(=O)/C(=C\c2ccc3c(c2)OCO3)NC(=O)c2ccccc2)cc1OC
5. CC(C)(C)[Si](C)(C)OC1C(=O)C(CO)OC1n1ccc(=O)[nH]c1=O (stereo unspecified)
6. COc1cc(CSc2ccc(O)cc2)cc(O)c1O
7. O=C(CC(C(=O)c1cccs1)c1cccs1)c1ccccc1Cl (stereo unspecified)

< 3.97
< 3.70
< 3.70
< 3.70
< 3.70
< 3.90
< 3.70

Please go through the list and note pEC50 for each molecule.
1. Cc1cn(C2CC(COCc3ccccc3)N(CCO)O2)c(=O)[nH]c1=O (stereo unspecified)
2. O=C1CCC23CC(C=CC=C12)n1c(=O)n(-c2ccccc2)c(=O)n13 (stereo unspecified)
3. CCCCCCCCCCCCNC(=O)c1ccc([Se][Se]c2ccc(C(=O)NCCCCCCCCCCCC)cc2)cc1
4. O=C(O)c1cc(Sc2ccc([N+](=O)[O-])c(C(=O)O)c2)ccc1[N+](=O)[O-]
5. CC(C)C(=O)Oc1cc2c(=O)oc3c(OC(=O)C(C)C)c(OC(=O)C(C)C)cc4c(=O)oc(c1OC(=O)C(C)C)c2c34
6. CN(/N=N/N(C)c1ccccc1)c1ccccc1
7. CC(/C=C/C1OC(=O)C=CC1C)=C\C(C)C/C=C/C(C)=C/C(C)C(=O)C(C)C(O)C(C)C/C(C)=C/C(=O)O (stereo unspecified)
8. CC(C(=O)O)c1ccc2c(c1)Cc1ccccc1-2 (stereo unspecified)

["< 3.70", "< 3.70", "< 5.15", "< 3.70", "< 4.30", "< 3.70", "< 7.70", "< 3.70"]

Please go through the list and note pEC50 for each molecule.
1. COc1cc(N(CCC#N)CCC#N)ccc1/C(N=Nc1ccc(C(=O)O)cc1)=N/NC(=O)c1cc(Br)ccc1O
2. CN(/N=C/c1ccc(Cl)c(Cl)c1)C1=NCCCCN1
3. CC1=NNC(=O)C1

1: < 3.70; 2: < 3.70; 3: < 3.70

---

- Tested on: CEM cells HIV-1 protection, formazan growth assay
- Measurement Notes: NCI AIDS Antiviral Assay
pEC50: −log10 of the molar value.
So I've got a bunch of compounds here, and I need their pEC50 values.

Use the examples below as a reference point.
[[record]]
compound = "NS(=O)(=O)c1nnc(NC(=O)Nc2ccc(Cl)c(Cl)c2)s1"
reported_result = "< 3.70"

[[record]]
compound = "COc1cc(C(C[N+](=O)[O-])SC(C)=O)ccc1OCc1ccccc1 (centres undefined)"
reported_result = "< 3.70"

[[record]]
compound = "Cc1ccc2nc3n(c2c1)C(c1c(F)cccc1F)SC3 (centres undefined)"
reported_result = 4.57

[[record]]
compound = "CC1C(=O)OC2C=CC3(C)C(=O)OC4OC5(c6ccoc6)CC1(O)C2(C)C43O5 (centres undefined)"
reported_result = "< 3.70"


Please go through the list and note pEC50 for each compound.
1. O=C(NCCCN1CC2CCCC2C1)C(c1ccccc1)c1ccccc1 (centres undefined)
2. Cc1cccc(N2C(=O)C3c4[nH]c5ccccc5c4C4CCC(C(C)(C)C)CC4C3C2=O)c1C (centres undefined)
3. S=c1sc2ccccc2n1CNc1ccccc1Cl
4. CCCc1cc(=O)oc2c3c(c4c(c12)OC(C)(C)CC4)O[C@H](C)C(C)C3O (some centres undefined)
5. CCN(CC)CCC(=O)OC1C(C)=CC(C)C(=O)CC(C(C)CC2CCC(O)C(OC)C2)OC(=O)C2CCCCN2C(=O)C(=O)[C@@]2(O)OC(CCC2C)CC(OC)\C(C)=C/C=C/C=C/C(C)CC(C)C(=O)C1OC (some centres undefined)

1. < 3.70
2. < 3.70
3. < 3.70
4. < 3.70
5. < 3.70
